Provide the reported abundance fitness of each item.
B1: Max-interacting protein 1, residues 70 to 120; numbered along this chain, P50539 (parent)
chain: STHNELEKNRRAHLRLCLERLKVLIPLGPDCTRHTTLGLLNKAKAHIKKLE

Variants of: B1
experimental protocol: abundance fitness (aPCA) (normalised: wild type 0, dead -1); higher = more abundant; growth selection in yeast, the domain comes from the species named
experimental setup: Homo sapiens
I only need the number, thanks.

Answer with the recorded abundance fitness for the variant listed here: H3F 0.168

Answer with the recorded abundance fitness for the variant listed here: I47G -0.539

Answer with the recorded abundance fitness for the variant listed here: C31P 0.053

Answer with the recorded abundance fitness for the variant listed here: R33F -0.129

Answer with the recorded abundance fitness for the variant listed here: R15Q -0.369

Answer with the recorded abundance fitness for the variant listed here: A43C -0.133

Answer with the recorded abundance fitness for the variant listed here: N4K -0.168

Answer with the recorded abundance fitness for the variant listed here: L39M -0.194

Answer with the recorded abundance fitness for the variant listed here: H46A 0.157

Answer with the recorded abundance fitness for the variant listed here: K8G -0.043

Answer with the recorded abundance fitness for the variant listed here: E5W -0.435

Answer with the recorded abundance fitness for the variant listed here: L6A -0.171

Answer with the recorded abundance fitness for the variant listed here: E7G -0.099

Answer with the recorded abundance fitness for the variant listed here: L6P 0.36

Answer with the recorded abundance fitness for the variant listed here: L14F 0.096

Answer with the recorded abundance fitness for the variant listed here: H34P -0.318

Answer with the recorded abundance fitness for the variant listed here: I25T -0.562

Answer with the recorded abundance fitness for the variant listed here: A12Q -0.305

Answer with the recorded abundance fitness for the variant listed here: H13V -0.339

Answer with the recorded abundance fitness for the variant listed here: N41F -0.7

Answer with the recorded abundance fitness for the variant listed here: C17G -0.402

Answer with the recorded abundance fitness for the variant listed here: L50P -0.353

Answer with the recorded abundance fitness for the variant listed here: H13Y -0.04

Answer with the recorded abundance fitness for the variant listed here: L37V -0.023

Answer with the recorded abundance fitness for the variant listed here: A12K -0.048
